- Assayed System: UniProtKB Q07889
- Measurement Notes: SOS1 degradation assay (Western blot), NCI-H358 cells
- Format: cell-based
- Design: The degradation of SOS1 by the compounds was investigated on KRAS G12C mutant human non-small cell lung cancer cells NCI-H358; host or cells: NCI-H358 (human cancer cell lines)
- Assay Setup: SOS1 degradation, NCI-H358 cells, 24 h, Western blot; read-out: NCI-H358 (G12C) Dmax
Listed next: entries and their corresponding Dmax.

Worked examples follow.
1. COc1cc2nc(C)nc(N[C@H](C)c3cc(N)cc(C(F)(F)F)c3)c2cc1C1CCC(C(=O)N2CCC(CCOCC3CCN(C(=O)c4ccc5c(c4)C(=O)N(C4CCC(=O)NC4=O)C5=O)CC3)CC2)CC1 (some centres unmarked) | 80 to 100%
2. COc1cc2nc(C)nc(N[C@H](C)c3cc(N)cc(C(F)(F)F)c3)c2cc1[C@H]1CC[C@H](C(=O)N2CCN(CC3CCC4(CC3)CCN(C(=O)c3ccc(F)c(N5CCC(=O)NC5=O)c3)CC4)CC2)CC1 | 80 to 100%
3. COc1cc2nc(C)nc(N[C@H](C)c3cc(N)cc(C(F)(F)F)c3)c2cc1[C@H]1CC[C@H](C(=O)N2CCN(CCOC3CCN(C(=O)c4ccc(Cl)c(N5CCC(=O)NC5=O)c4)CC3)CC2)CC1 | < 30%
4. CNCc1cccc(Cl)c1-c1csc([C@@H](C)Nc2nc(C)nc3cc(OC)c([C@H]4CC[C@H](C(=O)N5CCC(CCOCC6CCN(C(=O)c7ccc(Cl)c(N8CCC(=O)NC8=O)c7)CC6)CC5)CC4)cc23)c1 | 50 to 80%

// moving on: another record for Dmax
Input: Reported Dmax for COc1cc2nc(C)nc(N[C@H](C)c3cc(N)cc(C(F)(F)F)c3)c2cc1C1=CCC(C(=O)N2CCC(CCOCC3CCN(C(=O)c4ccc(OC)c(N5CCC(=O)NC5=O)c4)CC3)CC2)CC1 (some centres unmarked) : what is it?
Output: 80 to 100%

---

- Assayed System: SOS1 protein (Homo sapiens)
- Measurement Notes: SOS1 degradation assay (Western blot), DLD-1 cells
- Type: cell-based
- Design: host or cells: DLD-1 (human cancer cell lines)
- Assay Setup: 24 h, read-out: DLD-1 (G13D) DC50
Listed next: entries and their corresponding DC50.

Worked examples follow.
1. CNCc1ccccc1-c1csc([C@@H](C)Nc2nc(C)nc3cc(OC)c([C@H]4CC[C@H](C(=O)N5CCN(CC6CCC7(CC6)CCN(C(=O)c6ccc(OC)c(N8CCC(=O)NC8=O)c6)CC7)CC5)CC4)cc23)c1 | 50 to 100 nM
2. COc1cc2nc(C)nc(N[C@H](C)c3cc(N)cc(C(F)(F)F)c3)c2cc1[C@H]1CC[C@H](C(=O)N2CCN(CC3CCC4(CC3)CCN(C(=O)c3ccc(Cl)c(N5CCC(=O)NC5=O)c3)CC4)CC2)CC1 | < 50 nM

Input: Reported DC50 for "COc1cc2nc(C)nc(N[C@H](C)c3cc(N)cc(C(F)(F)F)c3)c2cc1[C@H]1CC[C@H](C(=O)N2CCN(CCOCC3CCN(C(=O)c4ccc(Cl)c(N5CCC(=O)NC5=O)c4)CC3)CC2)CC1" : what is it?
Output: 100 to 500 nM

---

- Assayed System: SOS1 protein (Homo sapiens)
- Sequence (Q07889 1-1333): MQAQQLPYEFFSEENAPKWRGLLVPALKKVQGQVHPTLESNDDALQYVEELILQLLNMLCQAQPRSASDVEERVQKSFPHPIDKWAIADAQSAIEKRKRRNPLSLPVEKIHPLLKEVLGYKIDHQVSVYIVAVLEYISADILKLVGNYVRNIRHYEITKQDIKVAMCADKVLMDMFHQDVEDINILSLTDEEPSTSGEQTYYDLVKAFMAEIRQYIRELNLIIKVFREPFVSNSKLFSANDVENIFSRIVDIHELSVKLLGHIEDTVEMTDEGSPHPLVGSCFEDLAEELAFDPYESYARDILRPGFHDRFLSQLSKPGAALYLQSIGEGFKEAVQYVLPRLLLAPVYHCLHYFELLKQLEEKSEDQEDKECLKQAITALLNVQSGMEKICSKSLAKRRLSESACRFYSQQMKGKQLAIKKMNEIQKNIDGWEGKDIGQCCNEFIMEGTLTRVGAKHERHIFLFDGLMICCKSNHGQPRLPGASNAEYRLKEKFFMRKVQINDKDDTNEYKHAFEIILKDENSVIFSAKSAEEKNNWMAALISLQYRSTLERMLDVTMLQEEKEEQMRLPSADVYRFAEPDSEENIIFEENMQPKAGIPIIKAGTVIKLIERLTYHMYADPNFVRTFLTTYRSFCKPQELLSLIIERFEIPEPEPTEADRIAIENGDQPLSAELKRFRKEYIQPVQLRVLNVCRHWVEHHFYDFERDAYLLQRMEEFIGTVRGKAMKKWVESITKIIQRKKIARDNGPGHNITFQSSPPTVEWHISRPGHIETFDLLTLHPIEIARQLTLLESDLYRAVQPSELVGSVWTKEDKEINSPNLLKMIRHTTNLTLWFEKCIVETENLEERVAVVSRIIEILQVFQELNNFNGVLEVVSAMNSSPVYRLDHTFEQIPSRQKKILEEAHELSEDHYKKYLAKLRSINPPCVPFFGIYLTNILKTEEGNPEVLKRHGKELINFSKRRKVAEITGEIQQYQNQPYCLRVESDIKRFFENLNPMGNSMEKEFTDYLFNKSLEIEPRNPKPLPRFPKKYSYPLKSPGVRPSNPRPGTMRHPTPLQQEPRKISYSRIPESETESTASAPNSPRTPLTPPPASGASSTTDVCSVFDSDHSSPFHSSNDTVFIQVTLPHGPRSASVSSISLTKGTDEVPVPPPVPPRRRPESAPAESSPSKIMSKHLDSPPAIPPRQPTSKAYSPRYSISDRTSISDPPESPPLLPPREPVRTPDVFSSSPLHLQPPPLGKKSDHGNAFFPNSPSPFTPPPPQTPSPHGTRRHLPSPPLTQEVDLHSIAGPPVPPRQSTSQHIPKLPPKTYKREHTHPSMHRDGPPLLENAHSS
- Measurement Notes: SOS1 degradation assay (Western blot), NCI-H358 cells
- Assay type: cell-based
- Parameters: The degradation of SOS1 by the compounds was investigated on KRAS G12C mutant human non-small cell lung cancer cells NCI-H358; host or cells: NCI-H358 (human cancer cell lines)
- Assay Setup: SOS1 degradation, NCI-H358 cells, 24 h, Western blot; read-out: NCI-H358 (G12C) DC50
Assay Endpoint: DC50

Worked examples follow.
1. COc1cc2nc(C)nc(N[C@H](C)c3cc(N)cc(C(F)(F)F)c3)c2cc1[C@H]1CC[C@H](C(=O)N2CCN(CC3CCN(C(=O)COc4ccc(Cl)c(N5CCC(=O)NC5=O)c4)CC3)CC2)CC1 [Example 37] | 1 to 10 µM
2. COc1cc2nc(C)nc(N[C@H](C)c3cc(NC(C)C)cc(C(F)(F)F)c3)c2cc1[C@H]1CC[C@H](C(=O)N2CCN(CC3CCC4(CC3)CCN(C(=O)c3ccc(Cl)c(N5CCC(=O)NC5=O)c3)CC4)CC2)CC1 [Example 18] | 1 to 10 µM
3. COc1cc2nc(C)nc(N[C@H](C)c3cc(N)cc(C(F)(F)F)c3)c2cc1[C@H]1CC[C@H](C(=O)N2CCC(CCCN(C)C3CCN(Cc4ccc(Cl)c(N5CCC(=O)NC5=O)c4)CC3)CC2)CC1 [Example 38] | 1 to 10 µM

Input: Reported DC50 for CNCc1ccccc1-c1csc([C@@H](C)Nc2nc(C)nc3cc(OC)c([C@H]4CC[C@H](C(=O)N(C)CCCC5CCC6(CC5)CCN(C(=O)c5ccc(Cl)c(N7CCC(=O)NC7=O)c5)CC6)CC4)cc23)c1 [Example 49] : what is it?
Output: 0.1 to 0.5 µM

Input: Reported DC50 for COc1cc2nc(C)nc(N[C@H](C)c3cc(N)cc(C(F)(F)F)c3)c2cc1OC1CCN(C(=O)C2CCN(CC3CCC4(CC3)CCN(C(=O)c3ccc(Cl)c(N5CCC(=O)NC5=O)c3)CC4)CC2)CC1 [Example 5] : what is it?
Output: 0.05 to 0.1 µM

---

Listed next: entries and their corresponding IC50.
- Assayed System: KRAS-G12C/SOS1 (Homo sapiens, UniProt Q07889)
- Construct: purchased Cisbio 63ADKOOOCB16PEG
- Measurement Notes: KRAS-G12C/SOS1 binding assay (HTRF)
- Assay Setup: inhibition of KRAS-G12C/SOS1 binding

Worked examples follow.
1) COc1cc2nc(C)nc(N[C@H](C)c3cc(N)cc(C(F)(F)F)c3)c2cc1[C@H]1CC[C@H](C(=O)N2CCN(CCN3CCC4(CC3)CCN(C(=O)c3ccc(Cl)c(N5CCC(=O)NC5=O)c3)CC4)CC2)CC1 | ≤ 0.015 µM
2) COc1cc2nc(C)nc(N[C@H](C)c3cc(N)cc(C(F)(F)F)c3)c2cc1[C@H]1CC[C@H](C(=O)N2CCN(CCC3CCC4(CC3)CCN(C(=O)c3ccc(Cl)c(N5CCC(=O)NC5=O)c3)CC4)CC2)CC1 | 0.015 to 0.03 µM

// moving on: another record for IC50
Input: Reported IC50 for "COc1cc2nc(C)nc(N[C@H](C)c3cc(-c4c(Cl)cccc4CN(C)C)cs3)c2cc1[C@H]1CC[C@H](C(=O)N2CCN(CCCOC3CCN(C(=O)c4ccc(Cl)c(N5CCC(=O)NC5=O)c4)CC3)CC2)CC1" : what is it?
Output: ≤ 0.015 µM
